- Tested on: Human ovarian A2780 cells
- Method Notes: MTT cytotoxicity test, A2780
- Format: cell-based
- Assay Context: 72 h, medium with 1% DMF (no DMF for 3a and 3b)
Property Measured: pIC50
Scale: negative log10 of molar concentration, which is what pIC50 denotes.

I have this compound here, N.N.[Cl][Pt][Cl] [cisplatin, reference compound] , and I need its recorded pIC50.
5.68

Data origin, for the record: patent US12304920B2
